Recorded values, source ChEMBL document CHEMBL1147855.

Tested on: Mus musculus
test_summary: Survival of NIH mice (Mus musculus) infected with Plasmodium berghei ANKA infected erythrocytes at 20 mg/kg, intraperitoneal after 4 days by Peter's test
Assay type: functional
property_measured: Survival (days)
Respond with the bare value in days.

Look over these answered cases.
>>> print(df.to_string())
                                        mol  target_system  assay_value
0  O=C(Nc1ccc(C(=O)/C=C/c2ccc(F)cc2F)cc1)NS(=O)(=O)c1ccc(Cl)cc1   Mus musculus            3
1  O=C(Nc1ccc(C(=O)/C=C/c2ccc3c(c2)OCO3)cc1)NS(=O)(=O)c1ccc(Cl)cc1   Mus musculus         2.16
2  Cc1ccc(S(=O)(=O)NC(=O)Nc2ccc(C(=O)/C=C/c3ccc(F)cc3F)cc2)cc1   Mus musculus            1
3  COc1cc(/C=C/C(=O)c2ccc(NC(=O)NS(=O)(=O)c3ccc(Cl)cc3)cc2)cc(OC)c1OC   Mus musculus         1.83

Here is the next item to consider.
# input # get_value(readout= Survival, system= Mus musculus) for O=C(Nc1ccc(C(=O)/C=C/c2ccc(F)cc2)cc1)NS(=O)(=O)c1ccc(Cl)cc1
# output 1
